System: Staphylococcus aureus
Experiment: Antibacterial activity against Staphylococcus aureus ATCC 29213 assessed as bacterial growth inhibition by CLSI protocol based assay
Type: functional
# Criterion met = MIC below 0.01 µg/mL (exclusive); Criterion not met = MIC at/above 0.01 µg/mL

## Task Lab note: MIC threshold 0.01 µg/mL. Does this compound come in strictly under it? N#Cc1ccc2ccc(=O)n(CCN[C@H]3CC[C@H]4[C@H](C3)OC(=O)N4c3ccc4c(n3)NC(=O)CO4)c2c1
## Result Criterion not met

## Task Lab note: MIC threshold 0.01 µg/mL. Does this compound come in strictly under it? COc1ccc2ccc(=O)n(CCCN[C@H]3CC[C@H]4[C@H](C3)OC(=O)N4c3ccc4c(n3)NC(=O)CO4)c2n1
## Result Criterion not met

## Task Lab note: MIC threshold 0.01 µg/mL. Does this compound come in strictly under it? N#Cc1cnc2ccc(=O)n(CCN[C@H]3CC[C@H]4[C@H](C3)OC(=O)N4c3ccc4c(n3)NC(=O)CO4)c2c1
## Result Criterion not met

## Task Lab note: MIC threshold 0.01 µg/mL. Does this compound come in strictly under it? COc1ncc2ccc(=O)n(CCN[C@H]3CC[C@H]4[C@H](C3)OC(=O)N4c3ccc4c(n3)NC(=O)CO4)c2n1
## Result Criterion not met

## Task Lab note: MIC threshold 0.01 µg/mL. Does this compound come in strictly under it? N#Cc1cnc2ccc(=O)n(CCCN[C@H]3CC[C@H]4[C@H](C3)OC(=O)N4c3ccc4c(n3)NC(=O)CO4)c2c1
## Result Criterion not met

## Task Lab note: MIC threshold 0.01 µg/mL. Does this compound come in strictly under it? COc1ccc2ccc(=O)n(CCN[C@H]3CC[C@H]4[C@H](C3)OC(=O)N4c3ccc4c(n3)NC(=O)CS4)c2n1
## Result Criterion met

## Task Lab note: MIC threshold 0.01 µg/mL. Does this compound come in strictly under it? COc1cnc2ccc(=O)n(CCN[C@H]3CC[C@H]4[C@H](C3)OC(=O)N4c3ccc4c(n3)NC(=O)CO4)c2n1
## Result Criterion not met

## Task Lab note: MIC threshold 0.01 µg/mL. Does this compound come in strictly under it? COc1cnc2ccc(=O)n(CCCN[C@H]3CC[C@H]4[C@H](C3)OC(=O)N4c3ccc4c(n3)NC(=O)CO4)c2c1
## Result Criterion not met

## Task Lab note: MIC threshold 0.01 µg/mL. Does this compound come in strictly under it? COc1ccc2ncc(=O)n(CCN[C@H]3CC[C@H]4[C@H](C3)OC(=O)N4c3ccc4c(n3)NC(=O)CO4)c2n1
## Result Criterion not met

## Task Lab note: MIC threshold 0.01 µg/mL. Does this compound come in strictly under it? COc1ccc2ccc(=O)n(CCN[C@H]3CC[C@H]4[C@H](C3)OC(=O)N4c3ccc4c(n3)NC(=O)CO4)c2c1
## Result Criterion met
